Measured Liver Microsome Stability (Multiple Species): Rat - % Remaining after 30 min w/NADPH values are reported for all entries that follow.
Assay: Liver Microsome Stability Assay (rat)
Details: rat liver microsomes, with NADPH, 1.0 uM compound
Just the number in %, nothing appended.

What the record says about CC(C)n1cnc(-c2ccccc2-c2csc(NC(=O)c3cccn3Cc3ccnc(F)c3)n2)c1 : Liver Microsome Stability (Multiple Species): Rat - % Remaining after 30 min w/NADPH is 0.02

What the record says about O=C(Nc1nc(/C=C/c2cocn2)cs1)c1cccn1Cc1ccncc1 : Liver Microsome Stability (Multiple Species): Rat - % Remaining after 30 min w/NADPH is 4.96

What the record says about CC(=O)N1CCC(Oc2ccc(N3CCC[C@@H]3c3csc(NC(=O)c4cccn4Cc4ccnc(F)c4)n3)cc2Cl)CC1 : Liver Microsome Stability (Multiple Species): Rat - % Remaining after 30 min w/NADPH is 12.8

What the record says about Cc1cc(C(=O)Nc2nc(/C=C/c3cn(C(C)C)cn3)cs2)n(Cc2ccnc(F)c2)c1 : Liver Microsome Stability (Multiple Species): Rat - % Remaining after 30 min w/NADPH is 49.7

---

Assay: Liver Microsome Stability Assay (mouse)
Conditions: mouse liver microsomes, with NADPH, 1.0 uM compound
ENDPOINT_NAME: Liver Microsome Stability (Multiple Species): Mouse - % Remaining after 30 min w/NADPH (%)
Just the number in %, nothing appended.

Below, each entry is followed by its recorded Liver Microsome Stability (Multiple Species): Mouse - % Remaining after 30 min w/NADPH result.
COMPOUND	QUANTITATIVE_READOUT
COCCCCn1cccc1C(=O)Nc1nc([C@H]2CCCN2c2ccccc2)cs1 [Compound C23]	12.7
O=C(Nc1nc([C@H]2CCCN2c2ccc(OC3CS(=O)(=O)C3)cc2)cs1)c1cccn1Cc1ccnc(F)c1 [Compound A158]	14.5
CNCCOc1ccc(N2CCC[C@@H]2c2csc(NC(=O)c3cccn3Cc3ccnc(F)c3)n2)cc1 [Compound A103]	55
O=C(Nc1nc([C@H]2CCCN2c2ccc(C(F)(F)F)cc2)cs1)c1cccn1Cc1ccncc1 [Compound A28]	30.3
O=C(Nc1nc([C@H]2CCCN2c2ccccc2)cs1)c1cccn1CCCC1COC1 [Compound C116]	5.51

What the record says about O=C(Nc1nc([C@H]2CCCN2c2ccc(CCO)cc2)cs1)c1cccn1Cc1ccnc(F)c1 [Compound A78] : Liver Microsome Stability (Multiple Species): Mouse - % Remaining after 30 min w/NADPH is 6.09

What the record says about CC(=O)N[C@H](C)c1ccc(N2CCC[C@@H]2c2csc(NC(=O)c3cccn3Cc3ccnc(F)c3)n2)cc1 [Compound A70] : Liver Microsome Stability (Multiple Species): Mouse - % Remaining after 30 min w/NADPH is 23.7

---

Tested on: TNFα-FL/Gaussia Luciferase
Assay: Dox Induced TNFα-FL-Gluc Assay
Type: cell-based
Settings: ratio of TNFaFLGluc IC50 to PD1ssGluc IC50
Each record is given T if its reported 24 hr Dox Inducible TNFaFLGluc 293FRT/TO: TNF/PD1 is strictly below 20. Records at or above 20 are given F.

A selection of reference data follows.
COMPOUND	MEASUREMENT_TARGET	CATEGORY_LABEL
NC(=O)Nc1ccc(N2CCC[C@@H]2c2csc(NC(=O)c3cccn3Cc3ccnc(F)c3)n2)cc1	TNFα-FL/Gaussia Luciferase	T
C[S+]([O-])N1CC(Oc2ccc(N3CCC[C@@H]3c3csc(NC(=O)c4cccn4Cc4ccnc(F)c4)n3)cc2)C1 (stereo partly shown)	TNFα-FL/Gaussia Luciferase	F
CC(C)n1ccc(/C=C/c2csc(NC(=O)c3cccn3Cc3ccnc(F)c3)n2)n1	TNFα-FL/Gaussia Luciferase	F

IN: Quick check: does CC(=O)N1CCC(Oc2ccc(N3CCC[C@@H]3c3csc(NC(=O)c4cc(C)cn4Cc4ccnc(F)c4)n3)cc2)CC1 have 24 hr Dox Inducible TNFaFLGluc 293FRT/TO: TNF/PD1 under 20?
OUT: T

IN: Quick check: does CC(=O)Nc1ccc(N2CCC[C@@H]2c2csc(NC(=O)c3cccn3Cc3ccnc(F)c3)n2)cc1F have 24 hr Dox Inducible TNFaFLGluc 293FRT/TO: TNF/PD1 under 20?
OUT: T

IN: Quick check: does CNCc1ccc(N2CCC[C@@H]2c2csc(NC(=O)c3cccn3Cc3ccncc3)n2)cc1 have 24 hr Dox Inducible TNFaFLGluc 293FRT/TO: TNF/PD1 under 20?
OUT: F

IN: Quick check: does O=C(Nc1nc(/C=C/c2cn(Cc3ccccc3)cn2)cs1)c1cccn1Cc1ccnc(F)c1 have 24 hr Dox Inducible TNFaFLGluc 293FRT/TO: TNF/PD1 under 20?
OUT: F

---

Test: Liver Microsome Stability Assay (mouse)
Conditions: mouse liver microsomes, with NADPH, 1.0 uM compound
ENDPOINT_NAME: Liver Microsome Stability (Multiple Species): Mouse - % Remaining after 30 min w/NADPH (%)
Just the number in %, nothing appended.

Below, each entry is followed by its recorded Liver Microsome Stability (Multiple Species): Mouse - % Remaining after 30 min w/NADPH result.
GIVEN_SMILES	QUANTITATIVE_READOUT
N#Cc1cnccc1Cn1cccc1C(=O)Nc1nc([C@H]2CCCN2c2ccccc2)cs1	0.39
CC(C)n1cnc(-c2cccc(-c3csc(NC(=O)c4cccn4Cc4ccnc(F)c4)n3)c2)c1	12
CC(C)c1c(/C=C/c2csc(NC(=O)c3cccn3Cc3ccnc(F)c3)n2)ncn1C	11.7

What the record says about CC(C)c1ccc(/C=C/c2csc(NC(=O)c3cccn3Cc3ccnc(F)c3)n2)nc1 : Liver Microsome Stability (Multiple Species): Mouse - % Remaining after 30 min w/NADPH is 0.29

---

Tested on: TNFα-FL/Gaussia Luciferase
Assay: Dox Induced TNFα-FL-Gluc Assay
Format: cell-based
Conditions: 24 hr Dox induction; 293FRT/TO cells; read-out: 24 hr Dox Inducible TNFaFLGluc 293FRT/TO: Mean IC50
Text: Flp-In 293 T-REx™ cells were transfected with pcDNA™5/FRT/TO plasmid inserted with cDNA encoding Gaussia Luciferase fused to the 3′ end of cDNA encoding full length TNFα (amino acids 1-233). Transfected cells were selected for resistance to the selectable markers Hygromycin and Blasticidin to create a stable cell line that contained the TNFα-FL/Gaussia Luciferase cDNA insert whose expression was regulated under the T-REx™ system. […]
ENDPOINT_NAME: log10 IC50 (log10 of the value in nM)
Remember, log10 of IC50, in nM.

COMPOUND	log10 IC50
O=C(Nc1nc([C@H]2CCCN2c2ccc(CO)cc2)cs1)c1cccn1Cc1ccnc(F)c1 [Compound A113]	2.13
CC(=O)N1CCC(Oc2ccc(N3CCC[C@@H]3c3csc(NC(=O)c4cccn4Cc4ccnc(F)c4)n3)nc2)CC1 [Compound A154]	2.81
O=C(Nc1nc([C@H]2CCCN2c2ccc(OC3CS(=O)(=O)C3)cc2)cs1)c1cccn1Cc1ccnc(F)c1 [Compound A158]	3.03
CC(=O)NCCOc1ccc(N2CCC[C@@H]2c2csc(NC(=O)c3cccn3Cc3ccnc(F)c3)n2)cc1 [Compound A121]	2.26
CC(C)c1nc(/C=C/c2csc(NC(=O)c3cccn3Cc3ccncc3)n2)co1 [Compound B38]	3.85
Cc1ccc(/C=C/c2csc(NC(=O)c3cccn3Cc3ccnc(F)c3)n2)nc1F [Compound B49]	3.40
C[C@H](N)c1ccc(N2CCC[C@@H]2c2csc(NC(=O)c3cccn3Cc3ccncc3)n2)cc1 [Compound A71]	3.57
CC(=O)N1CCC(Oc2ccc(N3CCC[C@@H]3c3csc(NC(=O)c4cccn4Cc4ccnc(F)c4)n3)cc2F)CC1 [Compound A102]	2.08
Cc1cn(C(C)C)nc1/C=C/c1csc(NC(=O)c2cccn2Cc2ccncc2)n1 [Compound B80]	3.86
CC(=O)N[C@H](C)c1ccc(N2CCC[C@@H]2c2csc(NC(=O)c3cccn3Cc3ccncc3)n2)cc1 [Compound A66]	2.77

What the record says about CNc1ccc(N2CCC[C@@H]2c2csc(NC(=O)c3cccn3Cc3ccncc3)n2)cc1 [Compound A15] : log10 IC50 is 2.94

What the record says about CC(=O)N1CCCCC1c1ccc(N2CCC[C@@H]2c2csc(NC(=O)c3cccn3Cc3ccncc3)n2)cc1 (stereo partly shown) [Compound A58] : log10 IC50 is 3.27

---

Test system: multiple myeloma cell line NCI-H929
Experiment: H929 Cell Viability Assay
Assay type: cell-based, human
Conditions: Homo sapiens, NCI-H929, 48 h, NCI-H929 cells, Celltiter-Glo
Each record is given condition met if its reported EC50 is strictly below 20 µM. Records at or above 20 µM are given condition not met.

A selection of reference data follows.
MOLECULE	CATEGORY_LABEL
Cc1ccc(S(=O)(=O)N(C(=O)c2cccn2Cc2ccncc2)c2nc([C@H]3CCCN3S(=O)(=O)c3ccc(C)cc3)cs2)cc1 [Compound E52]	condition not met
CC(=O)N1CCC(n2cnc(/C=C/c3csc(NC(=O)c4cccn4Cc4ccnc(F)c4)n3)c2)CC1 [Compound B91]	condition not met
COC(=O)Nc1ccc(N2CCC[C@@H]2c2csc(NC(=O)c3cc(C)cn3Cc3ccnc(F)c3)n2)cc1 [Compound A172]	condition met
O=C(Nc1nc(/C=C/[C@H]2CCCCN2)cs1)c1cccn1Cc1ccncc1 [Compound E16]	condition not met
CC1CCn2cnc(/C=C/c3csc(NC(=O)c4cccn4Cc4ccnc(F)c4)n3)c2C1 (stereo not shown) [Compound B97]	condition not met
Cc1cccc(Cn2cccc2C(=O)Nc2nc([C@H]3CCCN3c3ccccc3)cs2)c1 [Compound C120]	condition not met

Here's the next entry for you.
IN: Quick check: does CCn1cnc(/C=C/c2csc(NC(=O)c3cccn3Cc3ccncc3)n2)c1 [Compound B69] have EC50 under 20 µM?
OUT: condition not met

Origin of the recorded values: patent US20230286973A1
